Taken from patent US20250332112A1.

Test Details: Parent ionizable lipid remaining in liver at 6 h after luciferase mRNA LNP (LC-MS)
Type: in vivo
Run Conditions: Table 18; 6 h after IV 0.5 mg/kg Luciferase mRNA LNP, female BALB/c mice (n = 4)
Endpoint: Parent ionizable lipid remaining in liver, Average
Kindly write the number and append the unit.

{"Compound": "CCCCCCCCCCON(C(=O)CCCN(C)C)C(CCCCCCCCC)CCCCCCC(F)C(=O)OCCC(CCCCC)CCCCC (stereo not drawn)", "Val": "3.14 nmol/g liver"}
{"Compound": "CCCCCCCCCCN(C(=O)CCCN(C)C)C(CCCCCCCCC)CCCCCCC(F)(F)C(=O)OCCC(CCCCCC)CCCCCC (stereo not drawn)", "Val": "17.06 nmol/g liver"}

Can you look up the measured Parent ionizable lipid remaining in liver, Average of CCCCCCCCCCC(CCCCCCCC(=O)OCCC(CCCCC)CCCCC)N(CCCCCCCC(=O)OCCC(CCCCC)CCCCC)C(=O)CCCCN(C)C (stereo not drawn) for me?
31.41 nmol/g liver
